biological target: furin, P09958; assay: furin cleavage Z-score vs untreated control; higher = more cleavage, active = 3.5 or more, inactive = 1 or less, 8 variable residues between constant flanks; conditions: 7.5 min;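 note: purified furin at 1:10 enzyme:substrate in 50 mM HEPES pH 7.5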
Sequence (P09958 whole entry): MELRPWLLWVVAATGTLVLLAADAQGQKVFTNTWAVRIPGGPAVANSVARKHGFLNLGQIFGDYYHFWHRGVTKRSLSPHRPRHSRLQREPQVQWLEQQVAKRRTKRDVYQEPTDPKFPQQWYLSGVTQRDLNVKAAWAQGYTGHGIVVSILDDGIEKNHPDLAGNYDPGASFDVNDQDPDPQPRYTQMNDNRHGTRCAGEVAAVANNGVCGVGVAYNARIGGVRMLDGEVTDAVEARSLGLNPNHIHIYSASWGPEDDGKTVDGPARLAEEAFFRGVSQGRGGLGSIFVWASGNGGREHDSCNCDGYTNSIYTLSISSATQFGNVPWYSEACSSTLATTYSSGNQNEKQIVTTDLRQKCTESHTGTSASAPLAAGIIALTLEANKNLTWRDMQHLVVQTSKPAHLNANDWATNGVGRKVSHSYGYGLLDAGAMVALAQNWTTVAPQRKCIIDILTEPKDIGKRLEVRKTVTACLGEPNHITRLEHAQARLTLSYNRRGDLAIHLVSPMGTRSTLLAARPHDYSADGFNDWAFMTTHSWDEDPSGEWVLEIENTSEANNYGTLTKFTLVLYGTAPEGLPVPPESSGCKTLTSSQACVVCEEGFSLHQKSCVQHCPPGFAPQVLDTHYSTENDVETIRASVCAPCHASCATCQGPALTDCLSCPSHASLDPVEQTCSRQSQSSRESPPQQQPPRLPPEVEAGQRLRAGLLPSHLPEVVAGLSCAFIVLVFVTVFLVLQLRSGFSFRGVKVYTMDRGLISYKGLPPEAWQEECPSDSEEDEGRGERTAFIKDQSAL
This is one part of the list. No count for the full screen is at hand.
Measured furin cleavage Z-score accompanies every entry in the list below.
Kindly provide the number alone.

Examples with answers:
>>> value("CAYLSRVARSAGNASASA [FS-738]")
9.42
>>> value("CAGNLPGCSFAGNASASA [HC244]")
-0.0639
>>> value("CARKYRSNKGAGNASASA [FS-2703]")
0.0213

Lab note: next sequence to report on.
Endpoint output: furin cleavage Z-score of CARKYREVFCAGNASASA [FS-2041] . Value?
0.9
